- Tested on: OVCAR-4 ovarian
- Assay: NCI-60 one-dose screen, 48 h
- Condition Label: 10 µM unless noted
The panel holds about 83,000 compounds, 20% with a hit somewhere; the sample as a whole holds those more often. Active and inactive are the calls of the source. How the source made its calls: active means growth percent below 10; inactive means the rest.
Log the outcome using a class from true = active, false = inactive

INSERT INTO results (molecule, label_value) VALUES
  ('N#Cc1c(-c2cccc(F)c2)cc(-c2cccnc2)[nH]c1=O', 'false');

Below: the item to evaluate.
Query: recorded result category for COc1ccc(CCNC(=O)COc2cc3c(Nc4ccc(F)c(Cl)c4)ncnc3cc2OC)cc1OC in this test false

* * *

// reported growth for each item listed
- Test system: OVCAR-5 ovarian
- Assay: NCI-60 one-dose screen, 48 h (100 = growth as untreated, 0 = no growth, -100 = all killed)
- Condition Label: 10 µM unless noted
The panel holds about 83,000 compounds, 20% with a hit somewhere; the sample as a whole holds those more often.
Lab book: enter the figure in %, no units written.

Answered examples (5):
INSERT INTO assay_data (compound, reading) VALUES
  ('CCn1cc(C(=O)NN=C2CCCC2)c(=O)c2ccc(C)nc21', 94),
  ('Cc1ccc(Cc2cnc(NC(=O)c3cc(C)oc3C)s2)cc1', 67.6),
  ('Clc1ccc2c(NCCN3CCN(c4ccnc(N5CCCC5)n4)CC3)ccnc2c1', 68.8),
  ('O=C(Nc1ccccc1C(=O)N/N=C(\c1ccccc1)c1ccccn1)c1ccccc1', 31.9),
  ('CCCCCC#CC1OC23CCCCC2C(C#N)(C(=N)O3)C1(C#N)C#N (stereo not drawn)', 102);

What does the record list as growth for Nc1nc(CSc2n[nH]c(N)n2)nc(Nc2ccccc2)n1 ? 98.8

What value of growth has been reported for the following compound? CC[C@@H]1NC(=O)[C@H]([C@H](O)[C@H](C)C/C=C/c2ccc(CN3C(=O)C(C)=C(C)C3=O)cc2)N(C)C(=O)[C@H](C(C)C)N(C)C(=O)[C@H](CC(C)C)N(C)C(=O)[C@H](CC(C)C)N(C)C(=O)[C@@H](C)NC(=O)[C@H](C)NC(=O)[C@H](CC(C)C)N(C)C(=O)[C@H](C(C)C)NC(=O)[C@H](CC(C)C)N(C)C(=O)CN(C)C1=O 75.9

Quick one: growth of COc1cccc(NC(=O)c2sc3nc(C)c(C(O)c4ccccc4)cc3c2N)c1 (stereo not drawn) ? 47.5

* * *

- Test system: HT29 colon
- Assay: NCI-60 one-dose screen, 48 h
- Condition Label: 10 µM unless noted
This is part of a sample that, as a whole, favours compounds with a hit. Of some 83,000 tested, about 20% had one in any assay. Activity calls are given as the source filed them. The calls were made as follows: active = growth percent below 10; inactive = the rest.
Choose one outcome from this list and give only that: active, inactive

INSERT INTO assay_data (compound, label_value) VALUES
  ('CCCCSc1ccc2nc(-c3ccc(OCCCN=C(N)N)cc3)cn2c1', 'inactive'),
  ('Cc1ccc(-c2nc3nc(-c4ccc(F)cc4)nc(N4CCCNCC4)c3o2)cc1', 'active'),
  ('O=c1oc2c(Br)cc(Br)cc2cc1-c1cc(-c2ccc(-c3cc(-c4cc5cc(Br)cc(Br)c5oc4=O)nc(-c4cc5cc(Br)cc(Br)c5oc4=O)c3)cc2)cc(-c2cc3cc(Br)cc(Br)c3oc2=O)n1', 'inactive');

Can you look up the reported call for CCCCCCCCCCCCCCCCCCn1cc(COc2ccc(C=O)cc2)nn1 for me? inactive

So what was the verdict on C#CCn1cnc2cnc(Nc3cccc(NC(=O)CCl)c3)nc21 in this test? active

* * *

- System: SNB-75 CNS
- Assay: NCI-60 one-dose screen, 48 h
- Condition Label: 10 µM unless noted
About 83,000 compounds went through this panel and 20% of them were active in at least one assay; those are over-represented in the sample as a whole. Activity calls are given as the source filed them. How the source made its calls: active means growth percent below 10; inactive means the rest.
Your response should consist of one outcome taken from T (active), F (inactive)

Recorded results for 4 compounds are shown here.
INSERT INTO measurements (compound, label_value) VALUES
  ('CCCCCCCCCCCCCCCCCCn1cc(COc2ccc(C=O)cc2)nn1', 'F'),
  ('Cc1ccc(Cc2cnc(NC(=O)c3cc(C)oc3C)s2)cc1', 'F'),
  ('CCN1C(=O)N(c2ccccc2)C2NC(=S)N(/N=C/C=C/c3ccccc3)C21 (stereo not given)', 'F'),
  ('COc1ccccc1/C=C1\COc2ccc(O)c(O)c2C1=O', 'F');

What classification did O=C(CCN1CCOCC1)Nc1cccc(-n2cc(-c3ccncc3)c(-c3ccc(Cl)c(O)c3)n2)c1 end up with in this test? T

Outcome logged for O=C(NCc1ccc(Cn2c(=O)sn(-c3ccc(Cl)cc3)c2=O)cc1)OCc1ccc2c(Cl)cc(Cl)c(O)c2n1 in this assay: F

* * *

Here, each record is paired with measured growth data.
- System: DU-145 prostate
- Assay: NCI-60 one-dose screen, 48 h (100 = growth as untreated, 0 = no growth, -100 = all killed)
- Condition Label: 10 µM unless noted
About 83,000 compounds went through this panel and 20% of them were active in at least one assay; those are over-represented in the sample as a whole. Activity calls are given as the source filed them. How the source made its calls: active means growth percent below 10; inactive means the rest.

For orientation, consider the following solved cases.
INSERT INTO results (smiles_representation, target_or_system, reading) VALUES
  ('CN(C)C(=O)c1cc2cnc(Nc3ccc(-c4csc5c(=S)cc(N6CCOCC6)oc45)cc3)nc2n1C1CCCC1', 'DU-145 prostate', '16.9% (inactive)'),
  ('N#Cc1ccccc1-c1ccc(Cn2c(-c3cscn3)nc3c(Cl)cccc32)cc1', 'DU-145 prostate', '86.5% (inactive)');

What value of measured growth is listed for O=C1Nc2ccccc2/C1=C/c1cccn1CCCCCn1c2ccccc2c(=O)c2ccccc21 ? 97.9% (inactive)

Bench note: what growth did CCCCCCCCCCCCC[C@H](O)C[C@H](O)[C@H](C)N show? 96.9% [1.25 µM] (inactive)

Would you kindly share the measured growth for O=C(CCN1CCOCC1)Nc1cccc(-n2cc(-c3ccncc3)c(-c3ccc(Cl)c(O)c3)n2)c1 ? 13% (inactive)

* * *

- Test system: COLO 205 colon
- Assay: NCI-60 one-dose screen, 48 h
- Condition Label: 10 µM unless noted
Compounds without any hit were thinned out: in the full panel of roughly 83,000, 20% have a hit. Calls of active or inactive are those of the source. Rule for the calls: active = growth percent below 10; inactive = the rest.
// one of active, inactive, no free text

Solved entries:
INSERT INTO measurements (compound, label_value) VALUES
  ('CCCCC1COc2cccc3c2N1C=C/C3=C\C(=O)N(C)c1cccc(Cl)c1 (centres undefined)', 'inactive'),
  ('C=C(CNCCO)[C@@H]1CC[C@]2(CO)CC[C@]3(C)[C@H](CC[C@@H]4[C@@]5(C)CCC(NCCc6ccc(O)cc6)C(C)(C)[C@@H]5CC[C@]43C)[C@@H]12 (some centres undefined)', 'active'),
  ('COc1ccc(/C(C)=C(\c2ccc(OCCN3CCOCC3)cc2)c2ccc(OC(=O)C3CCCCC3)cc2)cc1', 'inactive'),
  ('CCCN1C(=O)/C(=c2\sc3n(c2=O)NC2C(N=3)N(CC)C(=O)N2CC)c2ccccc21 (centres undefined)', 'inactive'),
  ('O=C(N/N=C/c1ccc(O)cc1O)c1cccc(Nc2ccnc(C(F)(F)F)c2)c1', 'inactive');

Dear colleague, could you share the recorded outcome for COc1ccc(/C=N/NC(=O)CN2CCN(c3cc4c(cc3F)c(=O)c(C(=O)O)cn4C3CC3)CC2)cc1O when you have a moment? inactive

Test call for this compound, please: Cc1ccc(S(=O)(=O)OC[C@@]2(C)CC[C@]3(C)CC[C@]4(C)C(=CC[C@@H]5[C@@]6(C)CCCNC(C)(C)[C@@H]6CC[C@]54C)[C@@H]3C2)cc1 active

Tell me the assay call for c1ccc(-c2cc(-c3cc(-c4ccccc4)on3)no2)cc1 please. inactive

Identify the outcome logged in this assay for the compound shown: O=C(/C=C/c1ccc([N+](=O)[O-])cc1)c1ccccc1 inactive

* * *

- Test system: ACHN renal
- Assay: NCI-60 one-dose screen, 48 h (100 = growth as untreated, 0 = no growth, -100 = all killed)
- Condition Label: 10 µM unless noted
- Protocol: Growth inhibition of the ACHN human tumor cell line is measured as a screen for anti-cancer activity. Cells are grown in 96 well plates and exposed to the test compound for 48 hours. Compounds are tested at a single concentration, which is 10^-5 M for most compounds. The reported endpoint is percent growth (GI% or GIPRCNT), where numbers from 0 - 100% represent growth inhibition, and numbers from -100% - 0 represent cell death. For example, a value of 40 represents 60% growth inhibition. […]
About 83,000 compounds went through this panel and 20% of them were active in at least one assay; those are over-represented in the sample as a whole.
Classify: YES when growth is strictly less than 90%; NO when growth is not.

Does the reported growth of the following molecule sit strictly below 90%? c1ccc(-c2cc(-c3cc(-c4ccccc4)on3)no2)cc1 YES

Is 90% strictly greater than the molecule's reported growth? molecule: COc1cc(-c2[nH]ncc2Nc2ccc(Cl)cc2)cc(OC)c1OC YES

Does COc1ccc(/C=C2/C(=O)N=C3N2NC(c2ccccc2)=CN3c2ccccc2)cc1 have growth strictly under 90%? NO

Report whether reported growth is lower than 90% (strictly) for COCCn1cc(-c2csc(-c3cn(C)c4ccc(F)cc34)n2)c2cccnc21 YES

Item CCN1CCN(C(=O)[C@]23CC[C@@H](C)[C@H](C)[C@@H]2C2=CC[C@@H]4[C@@]5(C)CCC(=O)C(C)(C)[C@@H]5CC[C@@]4(C)[C@]2(C)CC3)CC1 : growth beneath 90%, strictly? YES

Item O=S(=O)(O)c1ccc(N=Nc2ccc(N=Nc3cccc4ccccc34)c(S(=O)(=O)O)c2)cc1 : growth beneath 90%, strictly? NO

Could you please tell me whether growth recorded for C=C(C)[C@@H]1CC[C@]2(C(=O)O)CC[C@]3(C)[C@H](CC[C@@H]4[C@@]5(C)CCC(N)C(C)(C)[C@@H]5CC[C@]43C)[C@@H]12 (stereo partly specified) is less than 90%? YES

All values here come from PubChem BioAssay (NCI).
